System: SK-MEL-5 melanoma
Experiment: NCI tumour cell line growth inhibition, 48 h
Kindly supply the reported TGI values for the records listed here.

Measured TGI, "Cn1c(-c2ccccc2)cc(-c2ccsc2)c1-c1ccsc1" : > 100 µM

Entry OC(c1ccoc1)c1cc2ccccc2s1 (centres undefined) , TGI reported as > 10 µM

Data point: "CC1=CC(C)(C)[C@H]2O[C@@]3(O)C[C@]4(C)[C@H]5C[C@@](C(C)C)(O[C@H]4c4ccoc4)O[C@H]4[C@]5(C3)O[C@@]1(O)[C@]24O" ; TGI = > 100 µM

// TGI value for CC(N)Cc1ccc(F)cc1 (centres undefined) : > 100 µM

Source of measurements: PubChem BioAssay (NCI)
